EXPERIMENTAL_ENDPOINT: melting point

// solved cases for melting point follow
query: Give the measured melting point of O=S(=O)(NN=C(Cl)c1cc(Cl)ccc1Cl)c1ccccc1 .
result: 133 to 135 °C

query: Give the measured melting point of Cc1ccc(NC(=O)NCc2cccc3c2C(=O)N(C2CCC(=O)NC2=O)C3=O)cc1C (stereo unspecified) .
result: 222 to 224 °C

query: Give the measured melting point of CC(C)N1Cc2ccc(F)cc2N(CCN2CC=C(c3c[nH]c4cc(F)ccc34)CC2)S1(=O)=O .
result: 101 to 103 °C

More entries:
query: Give the measured melting point of CCCC1CCC(=O)C=C1c1ccc(OCC(=O)O)c(Cl)c1Cl (stereo unspecified) .
result: 177 to 178 °C

query: Give the measured melting point of COc1c(N)nc(-c2ccc(Cl)c(F)c2F)nc1C(=O)NO .
result: 192 to 194 °C

query: Give the measured melting point of O=C(OC[C@@H](O)[C@@H]1CC(c2ccc(-c3ccc(N4C[C@H](Cn5ccnn5)OC4=O)cc3F)cn2)=NO1)c1cccnc1 .
result: 210 °C
